Every entry's value here was drawn from PubChem BioAssay AID1745848.

# reported Potency; entries follow
- EXPERIMENTAL PROTOCOL: Confirmatory qHTS for Inhibitors of ATXN expression; note: potency is the fitted concentration of half-maximal effect; nearly all actives have a fitted effect of over 65% in size
- PARTICULARS: ATXN2-luciferase reporter cells, luminescence, 24 h; series mostly up to 57.5 µM
About 940 (45%) of roughly 2,100 compounds were called active. About 48% were inconclusive and are not listed. So high a share suggests a set chosen from earlier hits. The list shows a part of the results.

>>> result("O=C(Nc1ccc(OC(=O)N2CCCCC2)cc1)N1CCOCC1")
"4.47 µM (active)"
>>> result("COc1ccc(C[C@H]2NC[C@H](O)[C@H]2OC(C)=O)cc1")
"0.0282 µM (active)"
>>> result("Cc1ccc(/C=C2\\C(=O)NC(=S)N(c3ccccc3F)C2=O)s1")
"3.16 µM (active)"

Here's the next entry for you.
# get_value(readout='Potency', item= `C[C@@H]1C[C@@H]([C@H](O)CC2CC(=O)NC(=O)C2)C(=O)[C@@H](C)C1` ) 1.26 µM (active)

* * *

- EXPERIMENTAL PROTOCOL: Confirmatory qHTS for Inhibitors of ATXN expression; note: potency is the fitted concentration of half-maximal effect; nearly all actives have a fitted effect of over 65% in size
- PARTICULARS: ATXN2-luciferase reporter cells, luminescence, 24 h; series mostly up to 57.5 µM
In all, about 2,100 compounds went through this assay and about 940 (45%) were called active. About 48% were inconclusive and are not listed. The call rests on the fitted dose curve; in most records, active means well fitted inhibition curve with a large enough effect; inconclusive means small, poorly fitted or top-dose-only effect; inactive means no such curve, though single readings can be large or run the other way. The set was probably picked from earlier hits. This is one part of the list.
Select the matching outcome among label 1 for active, label 0 for inactive

>>> class_name("C[C@H]1[C@@H](OS(=O)(=O)O)C[C@@H]2C[C@H]([C@@H](O)c3cc(=O)[nH]c(=O)[nH]3)NC3=NC[C@H]1N32")
"label 1"

Status in this test for CC1CC(C)CC(C)C(O)C(C#N)=CC=CCC(C2CCCC2C(=O)O)OC(=O)CC(O)C(C)C1 (centres undefined) ? label 1

Status in this test for CCC1CN2CCc3cc(OC)c(OC)cc3C2CC1CC1NCCc2c1[nH]c1ccc(O)cc21 (centres undefined) ? label 1

Status in this test for `CC[C@@]1(O)C(=O)OCc2c1cc1n(c2=O)Cc2cc3c(NC(=O)CN)cccc3nc2-1` ? label 1

Status in this test for `CN1CN(c2ccccc2)C2(CCN(CCCSc3ccccc3NC(=O)/C=C/c3ccccc3)CC2)C1=O` ? label 1

Status in this test for `O=C(CSC1c2ccccc2-c2ccccc21)N/N=C/c1ccccc1O` ? label 1

* * *

- EXPERIMENTAL PROTOCOL: Confirmatory qHTS for Inhibitors of ATXN expression; note: potency is the fitted concentration of half-maximal effect; nearly all actives have a fitted effect of over 65% in size
- PARTICULARS: ATXN2-luciferase reporter cells, luminescence, 24 h; series mostly up to 57.5 µM
- Excerpt: PI: Daniel Scoles Ph.D. University of Utah School of Medicine, Salt Lake City, Utah MLPCN Grant: NS073009 Spinocerebellar ataxia type 2 (SCA2) is a multisystem neurodegenerative disease caused by a dominantly acting mutation leading to expansion of a polyQ domain in the ataxin-2 protein (ATXN2). SCA2 patients develop progressive ataxia and later lose function in other neuronal systems. […] Here we describe a 5-7 dose quantitative high thoroughput screen (qHTS) for compounds lowering ATXN2 expression. […]
In all, about 2,100 compounds went through this assay and about 940 (45%) were called active. Another 48% or so got no clear call; they are omitted. The set was probably picked from earlier hits. The list shows a part of the results.
# reported Potency; entries follow

# get_value(readout='Potency', item= CSCCC(c1nnnn1-c1c(C)cccc1C)N1CCC2(CC1)C(=O)NCN2c1ccccc1 (stereo not drawn) ) 35.5 µM (active)

# get_value(readout='Potency', item= Cc1cccc(C)c1-n1nnnc1C(c1cc2ccccc2o1)N1CCC(n2c(=O)[nH]c3ccccc32)CC1 (stereo not drawn) ) 3.16 µM (active)

# get_value(readout='Potency', item= CC1OC(OC2C(O)CC(OC3C(O)CC(OC4CCC5(C)C(CCC6C5CCC5(C)C(C7=CC(=O)OC7)C(O)CC65O)C4)OC3C)OC2C)CC(O)C1O (stereo not drawn) ) 0.316 µM (active)
